System: RSV (Long strain)
Assay: CPE assay, RSV-Long in Hep-2 cells
Format: cell-based, respiratory syncytial virus
Conditions: Hep-2 cells, CPE assay; μM using the estimated FW-516; listed as IV
QUANTITY: EC50 (µM)
The figure you give is taken to be in µM; do not add the unit.

Answer with the recorded EC50 for the molecule listed here: O=C(/C=C/c1ccc(O)c(O)c1)OC1CC(O)(C(=O)O)CC(OC(=O)/C=C/c2ccc(O)c(O)c2)C1O (stereo not shown) 0.068

----------
Tested on: MDCK cells
Experiment: Cytotoxicity in MDCK cells
Settings: read-out: CC50, MDCK; μM using the estimated FW-516
QUANTITY: CC50

Quick one: give measured CC50 for O=C(/C=C/c1ccc(O)c(O)c1)OC1CC(O)(C(=O)O)CC(OC(=O)/C=C/c2ccc(O)c(O)c2)C1O (stereo not shown) > 400 µM

----------
System: Hep-2 cells
QUANTITY: CC50

Please list CC50 recorded for the molecule O=C(/C=C/c1ccc(O)c(O)c1)OC1CC(O)(C(=O)O)CC(OC(=O)/C=C/c2ccc(O)c(O)c2)C1O (stereo not shown) > 400 µM
